System: MDA-MB-468 breast
protocol.notes: NCI-60 one-dose screen, 48 h (100 = growth as untreated, 0 = no growth, -100 = all killed)
test.context: 10 µM unless noted
Compounds without any hit were thinned out: in the full panel of roughly 83,000, 20% have a hit.
Friendly reminder: growth below 90% is Fulfilled, at or above is Not fulfilled.

compound: CS(=O)/C(C#N)=C\C=C\c1cccc(Cl)c1 (stereo unspecified)
test.system: MDA-MB-468 breast
answer.label: Fulfilled
//
compound: N=C(N)c1ccc(-c2ccc(-c3ccccc3)s2)nc1
test.system: MDA-MB-468 breast
answer.label: Fulfilled
//
compound: O=C(Nc1ccc(-n2ccc3c(NC(=O)c4ccccc4)nccc32)cc1)Nc1cccc(C(F)(F)F)c1
test.system: MDA-MB-468 breast
answer.label: Fulfilled
//
compound: O=C1/C(=C/c2ccc(Cl)c(Cl)c2)CN(C(=O)CCN2CCC(=NO)CC2)C/C1=C\c1ccc(Cl)c(Cl)c1
test.system: MDA-MB-468 breast
answer.label: Fulfilled
//
compound: CCOC(=O)c1c(Cl)c2c(n1Cc1ccc(OC)cc1)-c1oncc1CCC2
test.system: MDA-MB-468 breast
answer.label: Not fulfilled
//
compound: CCCCc1ccc(NC(=O)C(F)(F)F)cc1
test.system: MDA-MB-468 breast
answer.label: Not fulfilled
//
compound: COc1cccc2cc(N(C)c3nc(C)nc4ccsc34)ccc12
test.system: MDA-MB-468 breast
answer.label: Fulfilled
//
compound: O=C(N/N=C/c1ccc([N+](=O)[O-])s1)c1[nH]c2ccc(Br)cc2c1-c1ccccc1
test.system: MDA-MB-468 breast
answer.label: Fulfilled
//
compound: N#Cc1c(Nc2ccccc2)nc2n(c1=O)-c1ccccc1Sc1ccccc1-2
test.system: MDA-MB-468 breast
answer.label: Fulfilled
//
compound: C[N+](C)(C)CCOC(OCC[N+](C)(C)C)(c1ccccc1)c1ccccc1
test.system: MDA-MB-468 breast
answer.label: Not fulfilled
//
compound: CN1CCN(c2ccc3nc(-c4[nH]ncc4Nc4ncnc5[nH]ccc45)[nH]c3c2)CC1
test.system: MDA-MB-468 breast
answer.label: Fulfilled
//
compound: CCC(C)NC(=O)c1ccccc1C (stereo unspecified)
test.system: MDA-MB-468 breast
answer.label: Fulfilled
//
compound: COc1cc(-c2nc(-c3nnc(-c4ccc(F)c(Cl)c4)o3)c3ccccn23)cc(OC)c1OC
test.system: MDA-MB-468 breast
answer.label: Fulfilled
//
compound: COc1cccc(-c2nc3sccn3c2-c2ccnc(NCCNS(=O)(=O)c3ccccc3)c2)c1
test.system: MDA-MB-468 breast
answer.label: Fulfilled
//
compound: COc1ccc(C2C=C(c3ccc(OC)c(OC)c3)N=C3SC=C(C)N32)c(Br)c1 (stereo unspecified)
test.system: MDA-MB-468 breast
answer.label: Not fulfilled
//
compound: CCCCCCCCCCCC1=NC(C)(C)CN1C(C)C
test.system: MDA-MB-468 breast
answer.label: Fulfilled
//
compound: COc1cc2ncnc(-n3ncc4cc(NC(=O)Nc5ccc(Cl)c(C)c5)ccc43)c2cc1OC
test.system: MDA-MB-468 breast
answer.label: Not fulfilled
//
compound: Cc1ccc(NC(=O)COC(=O)c2ccc(S(=O)(=O)N3CCCCCC3)cc2)cc1
test.system: MDA-MB-468 breast
answer.label: Not fulfilled
